# Tested on: MDA-MB-468 breast
# TEST_METHOD_NOTES: NCI tumour cell line growth inhibition, 48 h; in the data active = GI50 below about 0.43 µM; inactive = the rest
I would appreciate it if you answered using one of these outcomes: active, inactive

CCCCC(=O)OCC1OC(n2cnc3c(=S)nc[nH]c32)C(OC(=O)CCCC)C1OC(=O)CCCC (stereo not given): active
COc1cccc(/C=N/NC(=O)c2ccccc2Nc2ccnc(C(F)(F)F)c2)c1O: active
COc1ccccc1NC(=O)c1ccc(NC(=O)CCl)s1: inactive

Lab log entry: `Cc1c(F)c(N)c2c(=O)cc(-c3ccc(NC(=O)CN(C)C)c(F)c3)oc2c1F` — outcome as called in the assay?
active

Ok, now `CN1CCN(Cc2ccc(NC(=O)c3cncc(C#Cc4cnc(N)c5ccc(C#N)cc45)c3)cc2C(F)(F)F)CC1`
active

====

# System: MDA-MB-468 breast
# TEST_METHOD_NOTES: NCI tumour cell line growth inhibition, 48 h; in the data active = GI50 below about 0.43 µM; inactive = the rest
I would appreciate it if you answered using one of these outcomes: active, inactive

Known results for molecules:
O=[N+]([O-])/C=C\c1ccc(Cl)c(Cl)c1: inactive
O=C(Nc1ccc(N2CCNCC2)cc1)c1[nH]ncc1Nc1cc(Oc2ccccc2)ncn1: inactive
C[C@]12CC[C@H](O)CC1=CC[C@@H]1[C@@H]2CC[C@]2(C)C(c3cccnc3)=CC[C@@H]12: inactive
O=C(CN1CCOCC1)Nc1ccc(Cn2nnc3c2C(=O)c2nnn(Cc4ccc(NC(=O)CN5CCOCC5)cc4)c2C3=O)cc1: active
COc1ccc(NC2=C(I)C(=O)C(C)=C(C)C2=O)cc1: active
N#C/C(=C1C=C/C(=N/O)C(Br)=C/1)c1ccccc1: inactive

Here's the next entry for you.
Lab log entry: `CNC(=O)OCc1c(COC(=O)NC)c(-c2ccc(Cl)c(Cl)c2)n2c1SCC2` — outcome as called in the assay?
active

====

# System: MDA-MB-231 breast
# TEST_METHOD_NOTES: NCI tumour cell line growth inhibition, 48 h
ATTRIBUTE_MEASURED: GI50

Below are worked cases with known answers.
CN1CCc2c(sc3ncnc(N/N=C/c4cn(-c5ccccc5)nc4-c4ccc(Cl)cc4)c23)C1: 468 nM
COc1sc(/C=N/NC(=O)c2[nH]c3ccc(Br)cc3c2-c2ccccc2)cc1Cl: 3230 nM
O=C(NN1C(=O)/C(=C/C=C/c2ccc([N+](=O)[O-])o2)SC1=S)c1ccccc1O: 257 nM

Now look at this one.
GET /values?readout=GI50&item= `COc1ccccc1NC(=O)c1ccc(NC(=O)CCl)s1`
15200 nM

====

# System: CAKI-1 renal
# TEST_METHOD_NOTES: NCI tumour cell line growth inhibition, 48 h
So I've got a bunch of compounds here, and I need their TGI values.

CN1CCc2c(sc3ncnc(N/N=C/c4cn(-c5ccccc5)nc4-c4ccc(Cl)cc4)c23)C1: > 66.7 µM
O=C(NN1C(=O)/C(=C/C=C/c2ccc([N+](=O)[O-])o2)SC1=S)c1ccccc1O: 2.67 µM

Provide the reported TGI of each entry below, same order.
1. COc1sc(/C=N/NC(=O)c2[nH]c3ccc(Br)cc3c2-c2ccccc2)cc1Cl
2. COc1ccccc1NC(=O)c1ccc(NC(=O)CCl)s1

["94.6 µM", "29 µM"]

====

# System: MDA-MB-468 breast
# TEST_METHOD_NOTES: NCI tumour cell line growth inhibition, 48 h
ATTRIBUTE_MEASURED: TGI (µM)
Answers are plain numbers, in µM.

Below are worked cases with known answers.
CCCCC/C(C=C(C#N)C#N)=C/c1ccccc1: 27.2
CCCCCc1ccc(S(=O)(=O)Nc2cccc(-c3csc(NC(=O)CCCCCN4CCN(C)CC4)n3)c2)cc1: 3.46
O=C1c2cccc(NCCN=Cc3cc(O)ccc3O)c2C(=O)c2c(NCCN=Cc3cc(O)ccc3O)cccc21: 2.37
COc1ccccc1NC(=O)c1ccc(NC(=O)CCl)s1: 27.7
COc1ccc(NC2=C(I)C(=O)C(C)=C(C)C2=O)cc1: 2.49
COc1ccc(/C(=C2\O[C@@H]([C@H]3COC(C)(C)O3)[C@H]3OC(C)(C)O[C@@H]23)c2cc(OC)c(OC)c(OC)c2)cc1O: 34.1
Cc1c(F)c(N)c2c(=O)cc(-c3ccc(NC(=O)CN(C)C)c(F)c3)oc2c1F: 0.394
O=C1/C(=C/c2ccc(Br)cc2)C=C(c2ccccc2)N1CCc1ccccc1: 7.8
CNC(=O)OCc1c(COC(=O)NC)c(-c2ccc(Cl)c(Cl)c2)n2c1SCC2: 1.27
Cc1ccc2c(c1)C(=O)/C(=C/c1ncc([N+](=O)[O-])n1C)O2: 4.34

Provide the reported TGI of each entry below, same order.
1. O=C(NN1C(=O)/C(=C/C=C/c2ccc([N+](=O)[O-])o2)SC1=S)c1ccccc1O
2. CCNCCNc1cc(-c2ccc(C(=O)OC)cc2)c(C#N)c2nc3ccccc3n12

3.07
2.86
